Reference source: paper PMC7826789

System: JAK3(JH1domain-catalytic)
Conditions: Compound Concentration (nM):1000;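 further: KINOMEscan scanMAX binding as percent activity remaining versus control; lower means stronger binding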
Entries and their Percent Control values follow.
Give just the numeric value; % need not be written.

Use the examples below as a reference point.
MOLECULE: CN1CCN(C(=O)c2ccc(NC(=O)Nc3ccc(N(C)c4ccnc(Nc5ccc(CS(C)(=O)=O)cc5)n4)cc3)cc2)CC1.Cl [GW830263A]
Percent Control (%): 5.4
//
MOLECULE: CN(C)c1cc2c(Nc3ccc4c(cnn4Cc4ccccc4)c3)ncnc2cn1 [GW282974X]
Percent Control (%): 99
//
MOLECULE: COc1cccc(-n2ncc3c(N/N=C/c4ccncc4)ncnc32)c1 [GW784752X]
Percent Control (%): 83
//
MOLECULE: CCn1c(-c2nonc2N)nc2c(C#CC(C)(C)O)nc(OCCNC)cc21.Cl
Percent Control (%): 87
//
MOLECULE: COc1ccccc1-c1cc(/C=C2\C(=O)Nc3ncc(Br)cc32)cc(Br)c1O [GW442130X]
Percent Control (%): 55

Query string: Could you please provide reported Percent Control for Cl.O=C(Nc1ccc(Oc2ccc3[nH]c(NC(=O)c4ccco4)nc3c2)cc1)Nc1cc(C(F)(F)F)ccc1F [GW683134A] ? Thanks!
Result string: 87

Query string: Could you please provide reported Percent Control for CC1=C(C(=O)Nc2ccc3[nH]ncc3c2)C(c2ccc(Cl)c(Cl)c2)CC(=O)N1 (stereo not shown) [GSK299115A] ? Thanks!
Result string: 9.3

* * *

System: PIK3C2G
Details: Compound Concentration (nM):1000
OUTCOME MEASURE: Percent Control
Write the numeric value and follow it with the unit.

Use the examples below as a reference point.
COMPOUND: Cl.c1ccc(Cc2nc3ccc(Nc4ncnc5ccccc45)cc3[nH]2)cc1 [GR269666A]
OBS VALUE: 89%

COMPOUND: COc1ccc2cc(-c3c(-c4ccncc4)nc(-c4ccc(S(C)(=O)=O)cc4C)n3C)ccc2c1 [SB-633825]
OBS VALUE: 81%

COMPOUND: CN1CCN(C(=O)c2ccc(NC(=O)Nc3ccc(N(C)c4ccnc(Nc5ccc(CS(C)(=O)=O)cc5)n4)cc3)cc2)CC1.Cl [GW830263A]
OBS VALUE: 100%

COMPOUND: COc1cc(N2CCN(C(C)C)CC2)ccc1Nc1nc(Nc2ccc(F)cc2C(=O)NC[C@@H](O)CO)c2cc[nH]c2n1 [GSK1392956A]
OBS VALUE: 96%

COMPOUND: COc1cccc(-c2c[nH]c3c(N/N=C/c4ccncc4)ncnc23)c1 [GW814408X]
OBS VALUE: 92%

Query string: Would you please give the reported Percent Control of COC(=O)Nc1nc2ccc(Oc3ccc(NC(=O)Nc4cc(C(F)(F)F)ccc4F)cc3)cc2s1.Cl [GW693917A] with PIK3C2G?
Result string: 87%

Query string: Would you please give the reported Percent Control of COc1cc(/C=N/Nc2ncnc3[nH]ncc23)ccc1O [GW578748X] with PIK3C2G?
Result string: 51%

Query string: Would you please give the reported Percent Control of CCS(=O)(=O)c1ccc(OC)c(Nc2ncc(-c3cccc(OC)c3)o2)c1 [GW580509X] with PIK3C2G?
Result string: 97%

* * *

Test system: NEK7
Conditions: Compound Concentration (nM):1000
OUTCOME MEASURE: Percent Control

MOLECULE: CCn1c(-c2nonc2N)nc2c(C#CC(C)(C)O)nc(OCCNC)cc21.Cl
Percent Control: 100%
--
MOLECULE: CN(C)CCNC(=O)Nc1ccc(N(C)c2ccnc(Nc3ccc(CS(C)(=O)=O)cc3)n2)cc1.Cl [GW830900A]
Percent Control: 93%
--
MOLECULE: CCS(=O)(=O)c1ccc(OC)c(Nc2ncc(-c3cccc(F)c3)o2)c1 [GW621970X]
Percent Control: 100%
--
MOLECULE: CN(C)c1cc2c(Nc3ccc4c(cnn4Cc4ccccc4)c3)ncnc2cn1 [GW282974X]
Percent Control: 78%
--
MOLECULE: COc1ccc2c(-c3ccnc(Nc4cccc(OC(F)(F)F)c4)n3)cnn2n1 [GW810372X]
Percent Control: 3.6%
--
MOLECULE: CN1CCN(C(=O)c2ccc(NC(=O)Nc3ccc(N(C)c4ccnc(Nc5ccc(CS(C)(=O)=O)cc5)n4)cc3)cc2)CC1.Cl [GW830263A]
Percent Control: 93%
--
MOLECULE: COC(=O)Nc1nc2ccc(Oc3ccc(NC(=O)Nc4cc(C(F)(F)F)ccc4F)cc3)cc2s1.Cl [GW693917A]
Percent Control: 100%
--
MOLECULE: CC1=C(C(=O)Nc2ccc3[nH]ncc3c2)C(c2ccc(Cl)c(Cl)c2)CC(=O)N1 (centres unmarked) [GSK299115A]
Percent Control: 87%

Query string: Could you please provide reported Percent Control for O=C1Nc2ccc(C(=O)c3ccco3)cc2C1=Cc1cc(Cl)c(O)c(Cl)c1 [GW406108X] ? Thanks!
Result string: 100%

Query string: Could you please provide reported Percent Control for COc1cc(C=NNc2ncnc3c2cnn3-c2ccccc2)ccc1O [GW513184X] ? Thanks!
Result string: 100%

Query string: Could you please provide reported Percent Control for CC(C)COC(=O)c1ccc2c(c1)/C(=C/Nc1ccc(S(N)(=O)=O)cc1)C(=O)N2 [GW416981X] ? Thanks!
Result string: 100%
